target: pooled human IgG (human IgG1, 2, 3 and 4)
Exercise: state measured Enzyme Activity Endpoint Assay (purified): scIgG for each of the proteins provided.
Give me the value, and tack the unit on after it.

Enzyme Activity Endpoint Assay (purified): scIgG for PRT-646 (protein) MQITSVWTKGVTPLTPEQFRYNNEDVIHAPYLAHQGWYDITKAFDGKDNLLCGAATAGNMLHWWFDQNKTEIEAYLSKHPEKQKIIFNNQELFDLKAAIDTKDSQTNSQLFNYFRDKAFPNLSARQLGVMPDLVLDMFINGYYLNVFKTQSTDVNRPYQDKDKRGGIFDAVFTRGDQTTLLTETTDLYGKGLNDISTIIKQELTEGRALALSHTYANVSISHVINLWGADFNAEGNLEAIYVTDSDANASIGMKKYFVGINAHGHVAISAKKIEGENIGAQVLGLFTLSSGKDIWQKLSLEHHHHHH ?
635 ng/µL

What Enzyme Activity Endpoint Assay (purified): scIgG value was documented for this protein, PRT-414 (protein) MTITSVWTKGVTPPTPEDFRYNNEDVLHAPYVANQGWYDITKTFDGKDNLLCGAATAGNMLHWWFDQNKEEIERYLKKHPEKQKIIFGNQELFDVKAAIDTKDSQTNSKLFNYFRDKAFPNLSARQLGVMPDLVLDMFINGYYLNLGKTQSTDVNRPYQDKDKRGGIFDAVFTRGDQTTLLTARHDLKNKGLNEISDLIKQELTEGKALALSHTYANVRINHVINLWGADFDAEGNLIAIYVTDSDANASIGMKKYFVGVNANGKVAISAKKIEGDNIGAQVLGLFTLSTGQDIWQKLS ?
129 ng/µL

Would you mind telling me what Enzyme Activity Endpoint Assay (purified): scIgG value was observed for PRT-594 (protein) MANQEIRYSEETPSTITSVWTKGVTPPTDFIQNEDVLHAPYIANQGWYDITKTFNGKDDLLCGAATAGNMLHWWFDQNKEQIENYLKKHPEKQKINFNGEQMFDVKEAIDTKDSQLDSALFEYFKDKAFPYLSTKHLGVFPDHVIDMFINGYRLSLTNHGPTPVKRGTKDPRGGIFDAVFTRGDQSKLLTSRHDFKEKTLNEISDLIKQELTEGKALGLSHTYANVRINHVINLWGADFNAEGNLEAIYVTDSDSNASIGMKKYYVGVNSAGKVAISAKEIEGDNIGAQVLGLFTLSTGQDIWNQTNLEHHHHHH ?
487 ng/µL

// returns reported Enzyme Activity Endpoint Assay (purified): scIgG for input PRT-624 (protein) MQITSVWTKGVTPLTPEQFRYNNEDVIHAPYLAHQGWYDITKAFDGKDNLLCGAATAGNMLHWWFDQNKTEIEAYLSKHPEKQKIIFNNQELFDLKAAIDTKDSQTNSQLFNYFRDKAFPNLSARQLGVMPDLVLDMFINGYYLNVFKTQSTDVNRDYDDKDKRGGIFDDVFGKGDQTTLLTARHDLKNKGLNDISTIIKQELTEGRALALSHTYANVSISHVINLWGADFNAEGNLEAIYVTDSDANASIGMKKYFVGINAHGHVAISAKKIEGENIGAQVLGLFTLSSGKDIWQKLSLEHHHHHH
626 ng/µL

Need Enzyme Activity Endpoint Assay (purified): scIgG of PRT-651 (protein) MQITSVWTKGVTPLTPEQFRYNNEDVIHAPYLAHQGWYDITKAFDGKDNLLCGAATAGNMLHWWFDQNKTEIEAYLSKHPEKQKIIFNNQELFDLKAAIDTKDSQTNSQLFNYFRDKAFGNLSARQLGVMPDLVLDMFINGYYLNVGKTQSTDVNRPYQTRDKRGGIFDAVFTRGDQTTLLTARHDLKNKGLNDISTIIKQELTEGRALALSHTYANVSISHVINLWGADFNAEGNLEAIYVTDSDANASIGMKKYFVGINAHGHVAISAKKIEGENIGAQVLGLFTLSSGKDIWQKLSLEHHHHHH , thanks.
359 ng/µL

Which Enzyme Activity Endpoint Assay (purified): scIgG value is on record for PRT-436 (protein) MSQTEDSESLQRLRDIEDFQAEKKDQNVVYTKWLDGVDVKDHDFRKIVDGNIAYYATPLLNGRGFYDINKDFNRDSDKCAAAVAANMFHYWLDRNRDNVDRFLRQNPEKHGIIELPDGQLKLSDFLNTYESDDGYRDKSKLFDFISNNFNGPVWTDKLLDNYINGYAYNYKYGRTIEDPTKNTSKINFFKEVFNEKILTNNHSIRNQNEFSVLLSEALYTGKAIGLSYGPAGLRHSLGHIISVWGADLDADGNVVAIYVTDSDDKKLTIGDERVGLKRYKISTDDEGRLRLTAYEETHNTGGQIRGLWTLDTGKQAWADYFDKTEQTGTDQAEQ ?
379 ng/µL

Consider the protein shown here: PRT-658 (protein) MQITSVWTKGVTPLTPEQFRYNNEDVIHAPYLAHQGWYDITKAFDGKDNLLCGAATAGNMLHWWFDQNKTEIEAYLSKHPEKQKIIFNNQELFDLRKAINTKDSQTNSALFNYFRDKAFPNLSARQLGVMPDLVLDMFINGYYLNVFKTQSTDVNRPYQDKDKRGGIFDAVFTRGDQTTLLTARHDLKNKGLNDISTIIKQELTEGRALALSHTYANVSISHVINLWGADFNAEGNLEAIYVTDSDANASIGMKKYFVGINAHGHVAISAKKIEGENIGAQVLGLFTLSSGKDIWQKLSLEHHHHHH What is its recorded Enzyme Activity Endpoint Assay (purified): scIgG?
317 ng/µL

# input protein: PRT-383 (protein) MVTSVWTKGVTPPTNFTYGEDVLHAPYVANQGWYDITKTFNGKDDLLCGAATAGNMLHWWFDQNKEQIENYLKKHPEKQKINFNGEQMFDVKEAIDTKDSQLDSKLFDYFKEKAFPYLSTKHLGVFPDHVIDMFINGYRLSLTNHGPTPVKRGSKDPRGGIFDAVFTRGDQSKLLTNRHDFKEKTLKEISDLIKQELTEGKALGISHTYANVRINHVINLWGADFDAEGNLEAIYVTDSDSNASIGMKKYFVGVNSNGKVAISAKEIEEDNIGAQVLGLFTLSTGQDIWNQTN ; wanted: its Enzyme Activity Endpoint Assay (purified): scIgG
230 ng/µL
